pIC50: −log10 of the molar value.
Quick record: pIC50, Cholinesterase (Homo sapiens).
Measurement name: pIC50

CC(=O)CCCCn1c(=O)c2c(ncn2C)n(C)c1=O [PENTOXIFYLLINE]
< 4.30
O=c1[nH]c(=O)c2[nH]cnc2[nH]1 [XANTHINE]
< 4.30
CCCn1cnc2c1c(=O)n(CCCCC(C)=O)c(=O)n2C [PROPENTOFYLLINE]
< 4.30

====

The following compounds are shown together with reported IC50 values.
Molecular target: Acetylcholinesterase (Homo sapiens, UniProt P22303)
Sequence (P22303 whole entry): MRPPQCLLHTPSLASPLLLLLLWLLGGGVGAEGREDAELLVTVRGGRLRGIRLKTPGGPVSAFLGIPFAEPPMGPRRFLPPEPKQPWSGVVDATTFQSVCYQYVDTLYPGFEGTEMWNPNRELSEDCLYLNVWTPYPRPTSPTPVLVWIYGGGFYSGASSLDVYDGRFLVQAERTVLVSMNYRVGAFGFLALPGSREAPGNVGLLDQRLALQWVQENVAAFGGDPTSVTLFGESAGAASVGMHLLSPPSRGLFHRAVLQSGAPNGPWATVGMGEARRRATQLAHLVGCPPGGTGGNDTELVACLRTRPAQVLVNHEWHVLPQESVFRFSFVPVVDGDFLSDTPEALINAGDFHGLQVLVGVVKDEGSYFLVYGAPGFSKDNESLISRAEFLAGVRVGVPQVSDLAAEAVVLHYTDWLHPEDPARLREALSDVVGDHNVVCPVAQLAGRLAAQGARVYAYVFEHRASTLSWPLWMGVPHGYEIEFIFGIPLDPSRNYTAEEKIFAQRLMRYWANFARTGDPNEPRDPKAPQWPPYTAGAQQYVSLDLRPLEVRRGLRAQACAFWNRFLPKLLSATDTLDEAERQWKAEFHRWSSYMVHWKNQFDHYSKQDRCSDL
Test: Inhibition of human AChE using acetylthiocholine iodide as substrate treated 5 mins before substrate addition measured up to 4 mins by Ellman's method
Measurement name: IC50 (µM)

O=c1[nH]c(=O)c2[nH]cnc2[nH]1 [XANTHINE]
9
CCCn1cnc2c1c(=O)n(CCCCC(C)=O)c(=O)n2C [PROPENTOFYLLINE]
6.4
CC(=O)CCCCn1c(=O)c2c(ncn2C)n(C)c1=O [PENTOXIFYLLINE]
6.6
